test system: MCF7; assay: Cytotoxicity against human MCF7 cells after 72 hrs; format: functional, cell-based; settings: MCF7, 72 h

| Molecule | Unit Of Measurement | Sign | IC50 |
| --- | --- | --- | --- |
| COc1cc(/C=C/C(=O)c2ccc3c(c2O)C=CC(C)(C)O3)ccc1O | µM | = | 10 |
| COc1cc(OC)c(-c2coc3c4c(ccc3c2=O)OC(C)(C)[C@@H](O)[C@H]4O)cc1OC (relative stereo) | µM | > | 30 |
| COc1cc(/C=C/c2ccc3c(c2)OC(C)(C)C=C3)cc(OC)c1OC | µM | = | 24 |
| COc1cc(/C=C/c2ccc(O)cc2)cc2c1C=CC(C)(C)O2 | µM | > | 30 |
| COc1ccc([C@@H]2CC(=O)c3c(O)c(CC=C(C)C)c4c(c3O2)C=CC(C)(C)O4)cc1O | µM | = | 6.9 |
